Tested on: U937 cell line (human histiocytic lymphoma cell line)
Assay details: U937 cell viability assay (TNF-α + Z-VAD-FMK induced necroptosis)
Type: cell-based
Condition notes: Homo sapiens, U-937; U937 cells, hTNF-α 0.1 μg/mL + Z-VAD-FMK 50 μM, 20 hours, CellTiter-Glo
pIC50: −log10 of the molar value.
Mark yes for reported pIC50 of 8 or greater; mark no for anything smaller.

Completed entries (count: 4):
CC(C)n1ncc2cnc(C(=O)NC3(c4ccc(-c5cncn(C6(C)CCC6)c5=O)cc4)CC3)nc21    yes
Cn1cncc(-c2ccc(C3(NC(=O)c4nc5n(n4)[C@H](c4ccccc4)CC5)CC3)cc2)c1=O    no
CC[C@@H](C)n1cncc(-c2ccc(C3(NC(=O)c4ncc5cnn(C(C)C)c5n4)CC3)cc2)c1=O    yes
CC(C)n1ncc2cnc(C(=O)NC3(c4ccc(-c5cncn([C@H](C)C(F)(F)F)c5=O)cc4F)CC3)nc21 (stereo in doubt)    yes

Please examine the following record next.
Enquiry: Decide: pIC50 of Cn1cncc(-c2ccc(C3(NC(=O)c4cc(Cc5ccccc5)on4)CC3)cc2)c1=O >= 8?
Return: no
